- Test system: EKVX
- Test: NCI tumour cell line growth inhibition, 48 h
Calls of active or inactive are those of the source. Cut-off read from the data, not from the text of the source: active = GI50 up to about 1.1 µM and inactive = higher.
A correct response names exactly one class from y (active), n (inactive)

Reference set, count: 3
COc1ccc(/N=C2\C(=N/c3ccc(OC)cc3)N(S(=O)(=O)c3ccccc3)C(=S)N2c2ccccc2)cc1: n
Cc1ccc(S(=O)(=O)N/N=C/C2(c3ccccc3)c3ccccc3-c3ccccc32)cc1: n
CC(C)=CCc1c2c(c3occ(-c4ccc(O)c(O)c4)c(=O)c3c1O)C=CC(C)(C)O2: n

Q) Please share the test call associated with O=c1cc(/N=N/c2ccc(O)cc2)[nH]c(=O)[nH]1 .
A) n

Q) Now this one: Fc1cccc2nc(-c3ccccc3)cc(OCc3ccccc3)c12
A) n

Q) Now this one: COC(=O)c1ccc(C)cc1C1CN=NC12Cc1cc(C)c(C)cc1C2=O (centres undefined)
A) n

Q) Now this one: CC(=O)OCC1OC(OC2CC3C(C)(C)C(=O)CC[C@]3(C)C3CC[C@]45C[C@]4(CCC5[C@@H](C)CC(O)C(O)C(C)(C)O)[C@]23C)C(O)C(O)C1O (some centres undefined)
A) n

Q) Now this one: OCCOc1ccc(-c2cc(-c3ccccn3)nc(-c3ccccn3)c2)cc1
A) y

Q) Now this one: CCOc1ccc(OCC)c([P+](c2ccccc2)(c2ccccc2)c2ccccc2)c1
A) y

Q) Now this one: C=C(C)[C@@]12C[C@H](OC(=O)[C@H](O)[C@@H](NC(=O)c3ccccc3)c3ccccc3)C(C)=C1[C@@H](OC(C)=O)C(=O)[C@@]1(C)C([C@@H]2OC(=O)c2cc(F)cc(F)c2)C2(OC(C)=O)CO[C@@H]2C[C@@H]1O (some centres undefined)
A) y

Q) Now this one: NC(=O)N/N=C/C(=C/Nc1ccccc1)[N+](=O)[O-]
A) n

Q) Now this one: COc1cc(-c2nc(SC)nc3c2CCc2ccccc2-3)cc(OC)c1OC
A) n

Q) Now this one: O=C1c2ccccc2C(=O)N1CCn1ccc(NC(c2ccccc2)(c2ccccc2)c2ccccc2)nc1=O
A) n

Q) Now this one: COC1(OC)C2(Cl)C(Cl)=C(Cl)C1(Cl)C1c3ccc(C(C)=O)c4cccc(c34)C12 (centres undefined)
A) n

Q) Now this one: COC(=O)[C@](NC(=O)OCc1ccccc1)([C@@H](C)Sc1ccc(C)cc1)C(F)(F)F
A) n

Q) Now this one: [N-]=[N+]=Nc1c([N+](=O)[O-])c(Cl)nc2ccccc12
A) n

Q) Now this one: Nc1c(C(=O)c2ccccc2)[nH]c(NCc2ccccc2)c1C(=S)Nc1ccccc1
A) n

Q) Now this one: N#CCN1C(=O)c2cccc3cc([N+](=O)[O-])cc(c23)C1=O
A) n

Q) Now this one: Cc1cccc2c1nc1n2C(=O)c2ccccc2-1
A) n

====

Exercise: for every item that follows, state its recorded GI50.
- Test system: M19-MEL
- Test: NCI tumour cell line growth inhibition, 48 h
Calls of active or inactive are those of the source. No stated cut-off is given here; in the data, active = GI50 up to about 1.1 µM and inactive = higher. Where a SMILES comes first, the peptide text is derived from it. The star is where a group is joined. Boc = CC(C)(C)OC(=O)*

c1ccc2c(c1)SC(=C1Sc3ccccc3S1)S2: > 100 µM (inactive)
O=C1C(=O)N(c2ccc(Cl)cc2)C(=O)C(=O)C1c1nc2ccccc2o1: > 100 µM (inactive)
ClCCN(CC#CCCCC#CCN(CCCl)CCCl)CCCl: 12.1 µM (inactive)
COC(=O)C1C2CC3C(OC(=O)C31)C2OC(=O)[C@](OC)(c1ccccc1)C(F)(F)F (some centres undefined): > 100 µM (inactive)
O=C1c2ccccc2C(=O)N1CCn1ccc(NC(c2ccccc2)(c2ccccc2)c2ccccc2)nc1=O: 16.8 µM (inactive)
C=C1CCC2C(C)(CO)C(O)CCC2(C)C1CC(O)/C(=C/CO)C(=O)O (centres undefined): > 100 µM (inactive)
CSCCC(NC(=O)C(CC(C)C)NC(=O)C1CCCN1C(=O)C(Cc1ccccc1)NC(=O)C(Cc1ccccc1)NC(=O)C(CCC(=O)O)NC(=O)OC(C)(C)C)C(N)=O (centres undefined) (Boc-EFFPLM-NH2; configuration not given here): > 100 µM (inactive)
Cc1cccc(C)c1NC(=O)C1=NC(=S)NC(c2ccccc2)C1c1nc2ccccc2s1 (centres undefined): > 100 µM (inactive)

Q) Request the reported GI50 associated with OCCOc1ccc(-c2cc(-c3ccccn3)nc(-c3ccccn3)c2)cc1
A) 0.0962 µM (active)
